- System: Listeria monocytogenes IDF 1b
- Format: cell-based
- applied_conditions: 17 h
Where no end group is shown, it is not given here.
quantity_kind: minimum inhibitory concentration (MIC)

| substance | quantity_kind | experimental_value |
| --- | --- | --- |
| RRWQWR [Sample No. 6, Arg-Arg-Trp-Gln-Trp-Arg] | minimum inhibitory concentration (MIC) | up to 100 μM |
| RRRQWR [Sample No. 7, Arg-Arg-Arg-Gln-Trp-Arg] | minimum inhibitory concentration (MIC) | up to 100 μM |
| KTFQWQRNMRK [Sample No. 14] | minimum inhibitory concentration (MIC) | up to 12 μM |
| KTVSWQTYMKK [Sample No. 13] | minimum inhibitory concentration (MIC) | up to 12 μM |
| KTRRWQWRMKK [Sample No. 11] | minimum inhibitory concentration (MIC) | up to 12 μM |
| KTLRWQNEMRK [Sample No. 15] | minimum inhibitory concentration (MIC) | up to 12 μM |
| RWQEMK [Sample No. 10, Arg-Trp-Gln-Glu-Met-Lys] | minimum inhibitory concentration (MIC) | up to 100 μM |
| KTVSWR [Sample No. 8, Lys-Thr-Val-Ser-Trp-Arg] | minimum inhibitory concentration (MIC) | up to 100 μM |
| KSRRRQWRMKK [Sample No. 12] | minimum inhibitory concentration (MIC) | up to 12 μM |
| KRNMRK [Sample No. 9, Lys-Arg-Asn-Met-Arg-Lys] | minimum inhibitory concentration (MIC) | up to 100 μM |
